Molecular target: caspase-1 (Homo sapiens, UniProt P29466)
Sequence (P29466 120-297 limits assumed): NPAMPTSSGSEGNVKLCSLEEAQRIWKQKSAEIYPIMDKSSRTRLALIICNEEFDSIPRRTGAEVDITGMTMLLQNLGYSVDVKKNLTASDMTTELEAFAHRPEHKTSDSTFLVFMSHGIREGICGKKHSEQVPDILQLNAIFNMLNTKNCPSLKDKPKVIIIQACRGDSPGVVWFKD
Sequence (P29466 317-404 limits assumed): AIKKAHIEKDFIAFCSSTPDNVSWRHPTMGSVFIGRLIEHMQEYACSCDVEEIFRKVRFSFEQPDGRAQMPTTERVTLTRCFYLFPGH
Assay: Caspase-1 inhibition assay, cleavage of fluorogenic substrate YVAD-AFC
Format: biochemical
Details: read-out: Enzyme activity (% at 100 μM)
attributeMeasured: remaining activity at 100 µM (%)
Give the number; % is assumed, so skip it.

# annotated cases, reported remaining activity at 100 µM shown
Q: Give recorded remaining activity at 100 µM with caspase-1 (Homo sapiens, UniProt P29466) for the following compound: O=C(O)C[C@@H](O)CNC(c1cccs1)c1nnnn1CCCC(=O)NCc1ccccc1 (mixture of isomers)
A: 49.6

Q: Give recorded remaining activity at 100 µM with caspase-1 (Homo sapiens, UniProt P29466) for the following compound: O=C(O)C[C@H](O)CNC(c1ccccc1)c1nnnn1CCCC(=O)N1CCc2ccccc2C1 (mixture of isomers)
A: 48.6

Q: Give recorded remaining activity at 100 µM with caspase-1 (Homo sapiens, UniProt P29466) for the following compound: CC(C)(C)CC(c1nnnn1CCCC(=O)N1CCc2ccccc2C1)N(Cc1ccccc1)C[C@H](O)CC(=O)O (mixture of isomers) [(3R)16ac]
A: 4.45

Now look at this one.
Q: Give recorded remaining activity at 100 µM with caspase-1 (Homo sapiens, UniProt P29466) for the following compound: O=C(O)C[C@@H](O)CNC(c1ccccc1)c1nnnn1CCCC(=O)N1CCc2ccccc2C1 (mixture of isomers)
A: 40.5

Source: paper PMC8598261
